The following compounds are shown together with reported pIC50 values.
- System under test: WEE1 (Homo sapiens)
- Construct: purchased Thermo Fisher PR7373A
- Sequence (P30291 whole entry): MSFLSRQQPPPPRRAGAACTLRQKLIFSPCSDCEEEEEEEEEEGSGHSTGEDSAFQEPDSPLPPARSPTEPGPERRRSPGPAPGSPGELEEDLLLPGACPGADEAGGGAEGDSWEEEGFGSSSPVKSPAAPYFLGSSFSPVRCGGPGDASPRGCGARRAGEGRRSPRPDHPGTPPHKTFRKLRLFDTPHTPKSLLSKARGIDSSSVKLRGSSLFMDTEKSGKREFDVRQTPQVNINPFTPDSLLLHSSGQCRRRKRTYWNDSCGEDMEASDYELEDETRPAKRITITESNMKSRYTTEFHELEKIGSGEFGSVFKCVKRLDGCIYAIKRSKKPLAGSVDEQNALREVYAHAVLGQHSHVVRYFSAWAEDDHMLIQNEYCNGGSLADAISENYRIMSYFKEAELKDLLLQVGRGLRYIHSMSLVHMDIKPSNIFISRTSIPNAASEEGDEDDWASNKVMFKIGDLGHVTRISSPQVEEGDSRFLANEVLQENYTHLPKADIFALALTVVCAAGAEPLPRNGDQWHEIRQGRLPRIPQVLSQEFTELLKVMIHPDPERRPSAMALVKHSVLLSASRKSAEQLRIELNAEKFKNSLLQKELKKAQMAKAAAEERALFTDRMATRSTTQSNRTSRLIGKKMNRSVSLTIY
- Method description: Selectivity versus WEE1 assay (ADP-Glo enzymatic assay)
- Format: biochemical
- Experimental context: ADP-Glo; 15 nM WEE1, 60 minutes at 26° C.; banded
pIC50: −log10 of the molar value.

Study these solved cases before continuing.
Cc1ccc(O)c(C)c1NC(=O)c1cnc(Nc2ccn(CC(=O)O)n2)s1 < 4.96
Cc1ccc(O)c(C)c1NC(=O)c1cnc(Nc2ccn([C@@H]3CCN(C(=O)C(C)(C)c4ccccc4)C3)n2)s1 < 4.96
Cc1ccc(O)c(C)c1NC(=O)c1cnc(Nc2ncco2)s1 < 4.96
Cc1ccc(O)c(C)c1NC(=O)c1cnc(Nc2ccn(CC(=O)N3CCN(C(=O)CC(C)C)CC3)n2)s1 < 4.96

Missing value: pIC50, WEE1 (Homo sapiens), entry Cc1ccc(O)c(C)c1NC(=O)c1cnc(Nc2cc3ccc(O)cn3n2)s1 . Fill in?
4.96 to 6.00

Try the compound Cc1ccc(O)c(C)c1NC(=O)c1cnc(Nc2ccn(C3CCC3)n2)s1
4.96 to 6.00
